- target.or.test.system: CTNNA1 (catenin alpha 1) (UniProt P35221 2-906)
- Sequence (P35221 2-906): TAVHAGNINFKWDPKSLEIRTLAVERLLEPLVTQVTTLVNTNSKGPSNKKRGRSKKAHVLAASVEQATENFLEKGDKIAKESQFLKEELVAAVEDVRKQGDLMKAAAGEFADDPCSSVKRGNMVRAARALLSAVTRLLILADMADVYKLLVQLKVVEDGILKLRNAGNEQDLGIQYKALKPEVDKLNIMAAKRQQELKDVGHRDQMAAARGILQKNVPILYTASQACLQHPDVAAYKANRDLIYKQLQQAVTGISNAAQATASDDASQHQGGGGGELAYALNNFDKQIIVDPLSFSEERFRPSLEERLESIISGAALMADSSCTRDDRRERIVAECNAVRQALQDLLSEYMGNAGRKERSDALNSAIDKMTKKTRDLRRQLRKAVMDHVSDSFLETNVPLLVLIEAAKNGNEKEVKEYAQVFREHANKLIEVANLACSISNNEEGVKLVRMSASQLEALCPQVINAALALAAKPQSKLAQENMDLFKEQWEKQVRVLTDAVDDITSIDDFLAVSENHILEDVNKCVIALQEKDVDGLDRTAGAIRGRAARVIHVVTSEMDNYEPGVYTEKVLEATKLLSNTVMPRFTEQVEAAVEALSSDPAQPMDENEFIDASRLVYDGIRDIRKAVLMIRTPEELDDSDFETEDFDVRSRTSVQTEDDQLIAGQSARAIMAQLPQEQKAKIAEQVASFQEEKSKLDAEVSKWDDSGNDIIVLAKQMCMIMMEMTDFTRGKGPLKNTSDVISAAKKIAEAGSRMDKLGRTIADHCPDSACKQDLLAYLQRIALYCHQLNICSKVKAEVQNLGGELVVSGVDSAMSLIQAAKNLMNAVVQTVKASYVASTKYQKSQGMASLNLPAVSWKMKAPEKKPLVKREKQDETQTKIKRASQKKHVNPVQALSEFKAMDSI
- assay.explanation: MST; no antibody (control of the antibody competition); MST: 50 nM labeled CTNNA1 in 10 mM PBS pH 7.4, EA2 0.00153-50 uM in 10 mM PBST (0.05% Tween-20) pH 7.4; temperature not stated
- applied.conditions: tags: RED-NHS dye label; predicted mFold secondary structure
readout.name: pKd
Numbers only, as −log10 of the molar value.

Q: Requested field: pKd. Item: EA2 (ssDNA) DNA: AGCCTAAGCCTGTCCAGGAATCGTGCAGCCATAGCCTAAGCCTGTCCAGGAATCGATGGCTTAGTGGCACGATTAGGTC
A: 5.64
